The reader will find reported Inhibition values listed item by item below.
system: HepG2; experiment: GSK_TCMDC: Percent inhibition of human HepG2 cell line. Test compounds present at 10uM.; format: functional
Number in %, nothing else.

INSERT INTO results (molecule, endpoint, measured_value) VALUES
  ('O=C1OC2(CCN(C(=O)c3ccc(-n4cnnn4)cc3)CC2)CN1Cc1ccc(Cl)c(Cl)c1', 'Inhibition', 11),
  ('Cc1ccccc1C1CCN(C2CCC(NC(=O)c3ccc(-c4cccc(C(F)(F)F)c4)o3)CC2)CC1 (centres undefined)', 'Inhibition', 56),
  ('O=C(Nc1cccnc1)c1cc(-c2cccnc2)nc2ccc(Br)cc12', 'Inhibition', 9),
  ('COc1cccc(NC(=O)CSc2nc(-c3ccccc3Cl)ns2)c1', 'Inhibition', 7),
  ('CCn1c(-c2nc(-c3ccc4c(c3)OCO4)cnc2N)nc2cnccc21', 'Inhibition', 94);

Prompt line: Need Inhibition, item O=C(/C=C/c1ccc(Cl)c(Cl)c1)NC1CCC(CN2CCC(c3coc4ccccc34)CC2)CC1 (centres undefined)
Response line: 40

Prompt line: Item CCOC(=O)c1[nH]c2cc(Cl)cc(Cl)c2c1/C=C/C(=O)Nc1ccc(-c2cnc(NC(C)=O)[nH]2)cc1 has what recorded Inhibition?
Response line: 45

Prompt line: Please look up its Inhibition: CS(=O)(=O)O.FC(F)(F)COc1c(CCNCCCCNCCc2ccc3ccccc3c2OCC(F)(F)F)ccc2ccccc12
Response line: 99
